# Tested on: CCRF-CEM
# assay_summary: NCI tumour cell line growth inhibition, 48 h
Active and inactive are the calls of the source. No stated cut-off is given here; in the data, active = GI50 up to about 1.1 µM and inactive = higher.
Can you tell me GI50 for the items I'm about to list?

# GI50 of CC(C)c1cc(Cl)nc(Cl)n1 = > 100 µM (inactive)

Record O=C(OCC1CC(C2(O)CCCCC2)C(=O)O1)c1ccccc1 (configuration not stated) . Reported GI50: > 100 µM (inactive)

So, CC(=O)Nc1ccc(-c2nnc(SCC(=O)Nc3cccc(Cl)c3)o2)cc1 ? Its GI50 was 6.18 µM (inactive)

# GI50 (compound: COC1O[C@@H]2COC(C)(C)O[C@@H]2C(=O)N1Nc1ccc([N+](=O)[O-])cc1 (some centres not stated) ) is > 10 µM (inactive)

The recorded GI50 for entry Cc1ccc(Cc2n[nH]c(=O)n2Nc2ccccc2)cc1 equals > 100 µM (inactive)

Sample O=[N+]([O-])c1ccc(-c2nnc(C34CC5CC(CC(C5)C3)C4)o2)cc1 ; GI50 observed: > 100 µM (inactive)

Noted for CCCCCCCC(CC(=O)NC(CO)C(=O)NC(CO)CC(C)C)OC(=O)CC(CCCCCCC)OC(=O)CC(CCCCCCC)OC1OC(C)C(O)C(OC2OC(C)C(O)C(OC(C)=O)C2O)C1O (configuration not stated) : its GI50 reads 5.2 µM (inactive)

Per the record, CC(=O)NC1=C(Nc2ccc(C)cc2)C(=O)c2ccccc2C1=O has GI50 of 17.1 µM (inactive)

// recorded GI50 for O=C(O)c1ccn(-c2cccc(-n3ccc(C(=O)O)n3)n2)n1 : > 100 µM (inactive)

Per the records, this compound ( O=C(CC(c1ccccc1)N1CCCCC1)c1ccccc1 (configuration not stated) ) has GI50 equal to 2.09 µM (inactive)

The recorded GI50 for entry CCCCOC(=O)C1CN2C(=NC1(C(F)(F)F)C(F)(F)F)Sc1ccccc12 (configuration not stated) equals 30.2 µM (inactive)

GI50 reading for N#CS/C(C(Cl)=C(Cl)Cl)=C(/Cl)[N+](=O)[O-] : 0.284 µM (active)

GI50 measured on COc1cc(/C=C/C2=NN(c3cccc(S(=O)(=O)O)c3)C3(C2)SCC(=O)N3c2nc3ccccc3s2)cc(OC)c1OC (configuration not stated) = 28.8 µM (inactive)

Lab note: measured GI50 of CCOC(=O)C12CN(C34CC5CC(CC(C5)C3)C4)CC(C(=O)OCC)(C1=O)C(c1ccccc1)OC2c1ccccc1 (configuration not stated) was 44.3 µM (inactive)

Data point: Cc1ccc(/C=N\NC(=O)c2ccncc2)s1 ; GI50 = > 100 µM (inactive)

Entry O=C(CCC(=O)CC(O)(C(F)(F)F)C(F)(F)F)CC(O)(C(F)(F)F)C(F)(F)F ; GI50 = 42.1 µM (inactive)

Consider CC(C)=C/C(CC(O)(C(F)(F)F)C(F)(F)F)=N\O . Its measured GI50 is > 100 µM (inactive)

In plain terms, COc1ccc(CC2OC3(CCCCC3)CC3CCCCN32)cc1 (configuration not stated) has a documented GI50 of 47 µM (inactive)

The recorded GI50 for entry COc1cc(-c2coc3c(OC)c(OC4OC(COC5OC(C)C(O)C(O)C5O)C(O)C(O)C4O)c(OC)c(O)c3c2=O)cc(C)c1O (configuration not stated) equals 5.93 µM (inactive)

# GI50 of COc1cc2oc(-c3ccc4c(c3)OCO4)c(OC)c(=O)c2c(OC)c1O = 34.7 µM (inactive)

The recorded GI50 for entry CN(C)c1ccc(/C=c2/c3ccccc3n3c2cc(/C=C/c2ccccc2)[n+]3C)cc1 equals 0.0206 µM (active)

Notebook: N#CC1=C2Sc3ccccc3N2[C@H](c2ccccc2)[C@H]2COC(=O)[C@@H]12 , GI50 read as 7.45 µM (inactive)

Briefly, GI50 measured for CCCCCCCCCCCCCCCCSCC(COC)COP(=O)([O-])OCC[N+](C)(C)C (configuration not stated) : 2.9 µM (inactive)

// GI50 value for Cn1c2ccccc2c(=S)c2cc(NC(=O)CCCCC(=O)Nc3ccc4c(c3)c(=S)c3ccccc3n4C)ccc21 : > 100 µM (inactive)

GI50 in this record for O=c1c(O)c(-c2cc(O)c(O)c(O)c2)oc2cc(O)cc(O)c12 : 64.6 µM (inactive)

Sure, the documented GI50 for O=S(=O)(/C=C/C=C/[S+]([O-])c1ccccc1)c1ccccc1 (configuration not stated) is 0.333 µM (active)

// GI50 lookup, compound = CCOC(=O)C(C)c1nc2cc(N3CCOCC3)c(F)cc2[nH]c1=O (configuration not stated) , result: > 100 µM (inactive)

The measured GI50 associated with CC1(C)C(=O)C2(OS(=O)(=O)C(F)(F)F)CCC1C2 (configuration not stated) reads > 100 µM (inactive)

Measured GI50, CC(NC(=O)OCc1ccccc1)NC(=O)C(CC(=O)OC(C)(C)C)NC(=O)OC(C)(C)C (configuration not stated) : > 100 µM (inactive)

Looking up COP(=O)(OC)C(NC(=O)C(F)(F)F)(c1ccccc1)C(F)(F)F (configuration not stated) , I see its GI50 listed as > 100 µM (inactive)

Summary for this compound, Cc1ccc(C(=O)CC(O)(C(F)(F)F)C(F)(F)F)cc1[N+](=O)[O-] : GI50 is 4.63 µM (inactive)

Lab note: CC(C)(Sc1cc(C(C)(C)C)c(O)c(C(C)(C)C)c1)Sc1cc(C(C)(C)C)c(O)c(C(C)(C)C)c1 gave GI50 of > 100 µM (inactive)

For this compound ( CCOC(=O)C(NC(=O)CC)(Nc1ccc(S(=O)(=O)Nc2nc(C)cc(C)n2)cc1)C(F)(F)F (configuration not stated) ), measured GI50 is > 100 µM (inactive)

Lab note: measured GI50 of Nc1ccccc1.O=C(O)C(C(F)(F)F)C(F)(F)F was > 100 µM (inactive)

Entry Cn1c2ccccc2c2c(=S)c3ccccc3ccc21 , GI50 reported as 19 µM (inactive)

Recorded result, O=C(CC1(O)C(=O)Nc2ccccc21)c1ccncc1 (configuration not stated) , GI50: > 100 µM (inactive)

Lab book: GI50 of COC1(CC[C@@H](C)COC2OC(CO)C(O)C(O)C2O)O[C@H]2C[C@H]3[C@@H]4CC=C5C[C@@H](OC6OC(CO)C(OC7OC(C)C(O)C(O)C7O)C(O)C6OC6OC(C)C(O)C(O)C6O)CC[C@]5(C)[C@H]4CC[C@]3(C)[C@H]2[C@@H]1C (some centres not stated) noted as 17.9 µM (inactive)

###

# Test system: Hs-578T
# assay_summary: NCI tumour cell line growth inhibition, 48 h
The source made the active and inactive calls. Rule as the data show it: active = GI50 up to about 1.1 µM and inactive = higher.
metric: GI50

The recorded GI50 for entry C(=N\NC1=NCCN1)/c1cccc2cc3ccncc3nc12 equals 3.94 µM (inactive)

Lab book: GI50 of C/C(=N\NC(=S)N(C)C)c1ccccn1 noted as 3.7 µM (inactive)

get_value(item= Nc1ncc2ncn(C3CCC(CO)O3)c2n1 (stereo unspecified) , readout=GI50) returns > 100 µM (inactive)

Reported GI50 for CC(=O)OCC1OC(n2c(Br)nc3c2c(=O)n(C)c(=O)n3C)C(OC(C)=O)C1OC(C)=O (stereo unspecified) was 45.8 µM (inactive)

Sure, the documented GI50 for Cc1cccc2c(=O)c3cccc(CC(=O)O)c3oc12 is > 100 µM (inactive)

Value of measured GI50 for the entry COc1ccc(/N=N/C(=NNC(=O)c2ccc(C)cc2)c2ccc(N(C)C)cc2)cc1 : > 100 µM (inactive)

Reported GI50 of COC(=O)c1c(C)c2c(c(C)c1O)OC(=O)c1c(C)cc(O)c(C=O)c1O2 : 12.5 µM (inactive)

For this compound ( COc1ccccc1NC(=S)N/N=C(/C)c1ccccn1 ), measured GI50 is > 37.5 µM (inactive)

Field GI50 (entry O=C(O)/C=C/C(=O)Nc1cccc2c1-c1ccccc1C2=O ) reads 3.76 µM (inactive)

The recorded GI50 for entry O=[N+]([O-])c1ccc(-c2nnc(C34CC5CC(CC(C5)C3)C4)o2)cc1 equals > 100 µM (inactive)

GI50 reading for Nc1ccc(Nc2cc(O)nc(O)n2)cc1 : > 100 µM (inactive)

###

# System: HT-29
# assay_summary: NCI tumour cell line growth inhibition, 48 h
Active and inactive are the calls of the source. No stated cut-off is given here; in the data, active = GI50 up to about 1.1 µM and inactive = higher.
Exercise: state measured GI50 for each of the molecules provided.

GI50 in this record for O=C(O)c1ccn(-c2cccc(-n3ccc(C(=O)O)n3)n2)n1 : > 100 µM (inactive)

Quick note, GI50 for COc1cc2cc(C(=O)N3CC(CCl)c4c3cc([N+](=O)[O-])c3ccccc43)[nH]c2c(OC)c1OC (stereo not drawn) landed at 40.6 µM (inactive)

Form field GI50, entry CCOc1ccc(NC(=O)C2=C(C)NC(C)=C(C(=O)Nc3ccc(OCC)cc3)C2c2ccc([N+](=O)[O-])cc2)cc1 : 33.9 µM (inactive)

The molecule identified as COC1O[C@@H]2COC(C)(C)O[C@@H]2C(=O)N1Nc1ccc([N+](=O)[O-])cc1 (stereo partly drawn) registered its GI50 at 63 µM (inactive)

Lab note: measured GI50 of Cc1ccc(C)c(N2C(=O)C(=O)c3c(C)ccc(C)c32)c1 was 20.8 µM (inactive)

Lab note: measured GI50 of CCc1ccc2c(c1)/C(=C1/Nc3ccccc3/C1=N/O)C(=O)N2 was 4.71 µM (inactive)

response.value for CN1CCN(C2CC(=O)c3c(Cl)sc(Cl)c32)CC1 (stereo not drawn) (field: GI50) = 11.4 µM (inactive)

The molecule listed as c1ccc(CN2C3C4N(Cc5ccccc5)C2C2N(Cc5ccccc5)C(C(N2Cc2ccccc2)N4Cc2ccccc2)N3Cc2ccccc2)cc1 has a reported GI50 of > 100 µM (inactive)

So, CC(=O)OC1CC[C@@]2(C)C(CC[C@]3(C)C2CC=C2[C@@H]4C(C)[C@H](C)CCC4(C)CCC23C)[C@@]1(C)C(=O)O (stereo partly drawn) ? Its GI50 was 21.2 µM (inactive)

Sure, the documented GI50 for NC1=NC(=O)[C@H](Cc2c[nH]c3ccccc23)N1C(=O)OCc1ccccc1 is > 100 µM (inactive)

Briefly, GI50 measured for O=C1C2c3[nH]c4ccccc4c3C3CCCCCCC3C2C(=O)N1c1ccccc1 (stereo not drawn) : 19.9 µM (inactive)

Lookup result for Clc1ccc(C2=Nc3ccccc3SC(c3ccc(Cl)c(Cl)c3)C2)c(Cl)c1 (stereo not drawn) ; measured GI50: 11.4 µM (inactive)

Entry COP(=O)(OC)C(NC(=O)C(F)(F)F)(c1ccccc1)C(F)(F)F (stereo not drawn) — recorded GI50 = > 100 µM (inactive)

Just so you know, measured GI50 for O=C(c1ccccc1)C1S(=O)(=O)OCCOS1(=O)=O came out at > 100 µM (inactive)

Entry under test: COc1ccc(C(=O)Nc2ccccc2)cc1[N+](=O)[O-] . Its GI50 was 70.3 µM (inactive)

Field GI50 (entry O=C1CC[C@@H](S(=O)(=O)c2ccccc2)[C@@H](/C=C/c2ccccc2)O1 ) reads > 100 µM (inactive)

# GI50 (molecule: O=C(Nc1ccccc1)c1nn(-c2cc(S(=O)(=O)O)c([N+](=O)[O-])cc2Cl)[n+](-c2cc(S(=O)(=O)[O-])c([N+](=O)[O-])cc2Cl)n1 ) is > 100 µM (inactive)

Given item Cn1c(=O)c2c3ccccc3n(C)c2n(C)c1=O , the value recorded as its GI50 is > 100 µM (inactive)

Lab note: measured GI50 of O=C1[C@@H]2C3C=CC([C@H]4C(=O)N(CO)C(=O)[C@@H]34)[C@@H]2C(=O)N1CO was 62.8 µM (inactive)

The molecule identified as CCCN(CCC)C(=O)c1c([N+](=O)[O-])cc(C(F)(F)F)cc1[N+](=O)[O-] registered its GI50 at 32.5 µM (inactive)

Entry C[n+]1c(-c2ccc(/C=N/N=C/c3ccc(-c4cn5ccccc5[n+]4C)cc3)cc2)cn2ccccc21 — recorded GI50 = > 100 µM (inactive)

Record CC(=O)OCC1OC(n2c3c(cc(C#N)c2=O)CCCCCC3)C(OC(C)=O)C(OC(C)=O)C1OC(C)=O (stereo not drawn) , field GI50: > 100 µM (inactive)

molecule [N-]=[N+]=C(C(=O)OCC#CCOC(=O)C(=[N+]=[N-])S(=O)(=O)c1ccccc1)S(=O)(=O)c1ccccc1 , GI50 observed: > 10 µM (inactive)

The reported value for O=C1C(CN2CCOCC2)CCCC1CN1CCOCC1 (stereo not drawn) in terms of GI50 is 1.76 µM (inactive)

The value of GI50 measured for the molecule C=CC1(CC[C@]2(c3ccc(OC)c(OC)c3)C=[N+]([O-])O[C@H](O[C@@H]3CCCC[C@H]3C(C)(C)c3ccccc3)C2)OCC(C)(C)CO1 turned out to be 9.79 µM (inactive)

GI50 reported for this molecule COc1ccc(-c2csc(Cc3nc4c(Br)cc(Br)cc4c(=O)n3-c3ccc(OC)cc3)n2)cc1 : 48.9 µM (inactive)

So, C=C1CN2CC(=C)CN(C1)CS(=O)(=O)N1CC(=C)CN(CC(=C)C1)S(=O)(=O)N1CC(=C)CN(CC(=C)C1)S(=O)(=O)C2 ? Its GI50 was > 100 µM (inactive)

// GI50 value for O=C1C2C=CC(n3[nH]c(=O)n(Cc4ccccc4)c3=O)CC2C(=O)N1c1ccc(Br)cc1 (stereo not drawn) : > 100 µM (inactive)

Reported GI50 for COc1c(-c2ccc(O)c(O)c2)oc2c(O)c(O)cc(O)c2c1=O was 20 µM (inactive)

The molecule listed as O=C(Nc1ccccc1-c1nn(C(=S)Nc2ccccc2)c(=S)n(C(=S)Nc2ccccc2)c1=O)C(F)(F)F shows GI50 equal to 27.7 µM (inactive)

According to the records, this molecule NC(=O)c1csc(-c2ccc(CO)o2)n1 displays GI50 of > 100 µM (inactive)

Please fill in: GI50 reported for C[C@H]1C(=O)CC[C@]2(C)CCC(C(C)(C)O)CC12O (stereo partly drawn) = > 100 µM (inactive)

The molecule identified as Clc1ccc(C2ON=C(c3ccccc3)N2C23CC4CC(CC(C4)C2)C3)cc1Cl (stereo not drawn) registered its GI50 at > 10 µM (inactive)

The molecule identified as CC(=O)N1CCN(C=S)CC1 registered its GI50 at > 100 µM (inactive)

Entry under test: ONCCCn1cnc2c(NC3CC3)ncnc21 . Its GI50 was > 100 µM (inactive)

The recorded GI50 for Clc1c2nc3ccccc3c-2[nH]c2ccccc12 is 4.3 µM (inactive)

Lab note: measured GI50 of Cc1cc(OCC(=O)O)c(Cl)cc1Cl was > 100 µM (inactive)

Form field GI50, entry Cc1ccc(C2NC(=N)NC3=C2CCOc2c3ccc3ccccc23)cc1 (stereo not drawn) : 1.81 µM (inactive)
